# System: mixed culture of nerve cells-glial cells
# PROTOCOL NOTES: Protecting effect on NMDA-induced nerve cell death (LDH release)
# Format: cell-based, ICR mouse
# CONDITION SUMMARY: 2 μg/ml compound; 100 μM NMDA; LDH release after 24 hours
Under this convention, Satisfied denotes Inhibitory effect of cell death by NMDA-induced excitable neurotoxicity strictly below 30% and Not satisfied denotes Inhibitory effect of cell death by NMDA-induced excitable neurotoxicity at or above 30%.

Asked: Field: below-cutoff. Rule: recorded Inhibitory effect of cell death by NMDA-induced excitable neurotoxicity strictly less than 30%. Subject: "NCCCNCCCCNCCCn1c(=O)[nH]c2ccccc2c1=O"
Given back: Satisfied

Asked: Is it true that Inhibitory effect of cell death by NMDA-induced excitable neurotoxicity reported for "CS(=O)(=O)N(CCCCN(CCCn1c(=O)[nH]c2ccccc2c1=O)S(C)(=O)=O)CCCn1c(=O)[nH]c2ccccc2c1=O" is less than 30%?
Given back: Satisfied

Asked: For "Cn1c(=O)n(CCCNCCCCNCCCn2c(=O)c3ccccc3n(C)c2=O)c(=O)c2ccccc21" , is the recorded Inhibitory effect of cell death by NMDA-induced excitable neurotoxicity below the cut-off of 30%?
Given back: Not satisfied

Asked: Take the compound "CC(C)(C)OC(=O)N(CCCCN(CCCn1c(=O)[nH]c2ccccc2c1=O)C(=O)OC(C)(C)C)CCCn1c(=O)[nH]c2ccccc2c1=O" and say whether its Inhibitory effect of cell death by NMDA-induced excitable neurotoxicity is less than 30%.
Given back: Satisfied

Asked: State whether 30% exceeds Inhibitory effect of cell death by NMDA-induced excitable neurotoxicity recorded for "CCCCCCn1c(=O)n(CCCNCCCCNCCCn2c(=O)c3ccccc3n(CCCCCC)c2=O)c(=O)c2ccccc21" .
Given back: Not satisfied

Asked: Consider the compound "Cc1ccc(S(=O)(=O)N(CCCCN(CCCn2c(=O)[nH]c3ccccc3c2=O)S(=O)(=O)c2ccc(C)cc2)CCCn2c(=O)[nH]c3ccccc3c2=O)cc1" . Is its Inhibitory effect of cell death by NMDA-induced excitable neurotoxicity strictly less than 30%?
Given back: Satisfied

Asked: Dear reviewer, please state whether "CC(=O)N(CCCCN(CCCn1c(=O)[nH]c2ccccc2c1=O)C(C)=O)CCCn1c(=O)[nH]c2ccccc2c1=O" has Inhibitory effect of cell death by NMDA-induced excitable neurotoxicity strictly beneath 30%.
Given back: Satisfied

Asked: # strict comparison: is reported Inhibitory effect of cell death by NMDA-induced excitable neurotoxicity < 30%? input = "CCOC(=O)N(CCCCN(CCCn1c(=O)[nH]c2ccccc2c1=O)C(C)=O)CCCn1c(=O)[nH]c2ccccc2c1=O"
Given back: Satisfied

Asked: Hello, I'm reviewing records and need to know if Inhibitory effect of cell death by NMDA-induced excitable neurotoxicity of "CCOC(=O)N(CCCCNCCCn1c(=O)[nH]c2ccccc2c1=O)CCCn1c(=O)[nH]c2ccccc2c1=O" is below 30%. Could you check?
Given back: Not satisfied

Asked: Problem: For the compound "CC(=O)N(CCCCN(CCCn1c(=O)[nH]c2ccccc2c1=O)C(C)=O)CCCNC(=O)c1ccc(O)cc1" , is Inhibitory effect of cell death by NMDA-induced excitable neurotoxicity under 30%?
Given back: Satisfied

Asked: Dear reviewer, please state whether "CCCCCCN(CCCCN(CCCn1c(=O)[nH]c2ccccc2c1=O)C(=O)OC(C)(C)C)CCCn1c(=O)[nH]c2ccccc2c1=O" has Inhibitory effect of cell death by NMDA-induced excitable neurotoxicity strictly beneath 30%.
Given back: Not satisfied

Asked: Item "O=c1[nH]c2ccccc2c(=O)n1CCCNCC=CCNCCCn1c(=O)[nH]c2ccccc2c1=O" : Inhibitory effect of cell death by NMDA-induced excitable neurotoxicity beneath 30%, strictly?
Given back: Satisfied

These measurements were taken from patent US8404696B2.
